Entry source: PubChem BioAssay (NCI)

Tested on: OVCAR-5 ovarian
assay_notes: NCI tumour cell line growth inhibition, 48 h
observed_property: TGI (µM)
Provide only the numeric value, understood in µM.

compound="COc1cccc2c1OC(c1ccc(C#N)cc1)C([N+](=O)[O-])=C2 (stereo not given)" experimental_result=3.72

QUERY: Quick check: TGI of `COc1ccc2c(c1)[nH]c(=O)c1c3cc(OC)ccc3cn21` ?
RESULT: 2.3

---

Test system: RPMI-8226 leukemia
assay_notes: NCI tumour cell line growth inhibition, 48 h
Listing of entries alongside the reported TGI.

# count of solved cases: 5
compound=Cc1nnc2sc(NN)nn12 experimental_result="> 100 µM"
compound=CC(C)NC(=O)OCc1c(COC(=O)NC(C)C)c(-c2cc[n+](COC(=O)C(C)(C)C)cc2)n2c1CCC2 experimental_result="> 100 µM"
compound=COc1cccc(/C=N/[N-]C(N)=O)c1[O-].[Ni+2].[OH3+].c1ccc(-c2ccccn2)nc1 experimental_result="> 100 µM"
compound="CCCCCCCCCCCCCC(=O)OCC1OC(n2cc(F)c(=O)[nH]c2=O)C(NC(=O)OCc2ccccc2)C(OC(=O)CCCCCCCCCCCCC)C1O (centres undefined)" experimental_result="> 100 µM"
compound=c1ccc([P+](Cc2ccccc2C[P+](c2ccccc2)(c2ccccc2)c2ccccc2)(c2ccccc2)c2ccccc2)cc1 experimental_result="> 100 µM"

QUERY: Request - read-out TGI | tested on RPMI-8226 leukemia | compound `Clc1ccc2c(c1)N(c1ncnc3ccc(-c4cnc5[nH]ccc5c4)cc13)CC2`
RESULT: > 100 µM

QUERY: // map `Cc1ccc(-c2cc(C(F)(F)F)nn2-c2ccc(S(N)(=O)=O)cc2)cc1` to recorded TGI (system: RPMI-8226 leukemia)
RESULT: 29.9 µM

QUERY: Form entry - test system: RPMI-8226 leukemia; read-out: TGI; compound: CC1Oc2c(c(=O)oc3ccccc23)[C@@]1(C)CC1C[C@H](C)C(=O)O1 (some centres undefined)
RESULT: 77.4 µM

QUERY: Quick check: TGI on RPMI-8226 leukemia, item `CCOC(=O)CSC(=O)NCCCl` ?
RESULT: > 100 µM

---

System: OVCAR-5 ovarian
assay_notes: NCI tumour cell line growth inhibition, 48 h
observed_property: TGI

Solved cases below.
smiles_text=COc1cc2nc(SCC(=O)Nc3cc(OC)c(OC)c(OC)c3)n(Cc3ccccc3)c(=O)c2cc1OC observed_property=TGI experimental_result="> 100 µM"
smiles_text=Cc1nnc2sc(NN)nn12 observed_property=TGI experimental_result="> 100 µM"

Next, consider the following molecule.
QUERY: What measured TGI is associated with `NC(=O)c1ccc(NN=O)nc1` on OVCAR-5 ovarian?
RESULT: > 100 µM
